Reported t1/2 INVITRO values for the following compounds.
test: Assay for the Determination of Metabolic Stability with Human Liver Microsomes; format: in vitro ADME; conditions: pooled human liver microsomes, 37° C., NADPH

Below are worked cases with known answers.
CS(=O)(=O)CCNC(=O)N1C(=O)N(c2cccc(C(F)(F)F)c2)C2=C(C(=O)CCC2)C1c1ccc(C#N)cc1 (stereo not drawn) | >2.17 h
CS(=O)(=O)c1cc(C#N)ccc1C1C2=C(CCCC2=O)N(c2cccc(C(F)(F)F)c2)C(=O)N1CCCO (stereo not drawn) | >2.17 h

Continue with the next compound.
Enquiry: Give its t1/2 INVITRO value. Item: `CS(=O)(=O)c1cc(C#N)ccc1[C@@H]1C2=C(CCCC2=O)N(c2cccc(C(F)(F)F)c2)C(=O)N1C(=O)NCC(F)F`
Return: >2.17 h
